Test system: MS2 coat protein
Experimental Details: apparent KD of MS2 coat protein; designed switch direction (-1 OFF switch, 1 ON switch): -1; higher = weaker reporter binding
Details: input ligand: none
Entry flag: yes (1) if apparent KD of MS2 coat protein reaches 20 nM; no (0) if it does not.

Reference set (5 entries):
GUAACAUGCUGGUGAUCAUACAUGAGGAUCACCCAUGUAACAAGCUUUUUGCUCGUCUUAUAAGAUCACCAGCAUGU [Stov1/9-A3] (Eterna round: R97, puzzle: Sensor, turn-off variant 1) ... no (0)
GCAAGCUUAAUCAGUAUGAACAUGAGGAUCACCCAUGUAUAAGGUAAUUCUUUUGGGUUUUUUAUUGCUCGUCUUAU [JR_STOV1_Sub027] (Eterna round: R97, puzzle: Sensor, turn-off variant 1) ... yes (1)
AAUAAUAAUGUCAGGAUAUCUAGAGCUGCGGCUCUAGAGAAGGGACAUGAGGAUCACCCAUGUCACUCAAUAAU [BmEx4/3-C5] (Eterna round: R97, puzzle: Brourd's mod of Exclusion 4) ... no (0)
GACCUAUAGGUAGGAUAUCAUUGCGAUUAGCUAUGAGAAGGGCCACAUGAGGAUCACCCAUGUCCUCCAAUUAACCAUAAGGUC [Fiskers ExNg1 - 6] (Eterna round: R96, puzzle: Exclusion NG 1) ... yes (1)
UAUUAGCAAGCGAGAUCCCACAUGAGGAUCACCCAUGUAAAGCAUCCAGAAUUACUGGGUGCAAAAGCUCGUCUUUA [Winner reversed engineered 5] (Eterna round: R97, puzzle: Sensor, turn-off variant 1) ... yes (1)

Query: Confirm if apparent KD of MS2 coat protein reported for the sequence GCGGACUAGUACGUGAGUACUGAGACAUGAGGAUCACCCAUGUAGGAUAUCGAUUCGAAACGAAUCGAGAAGGGCAUAGUCCGC [JL denovo 10] (Eterna round: R96, puzzle: Exclusion NG 3) is 20 nM or above.
Result: yes (1)

Query: Check if apparent KD of MS2 coat protein >= 20 nM (inclusive). Item: UAUAUAUAGUAAGGAUAUGUAUUUAUUUUGUAAACAGAAGGUACUGACAUGAGGAUCACCCAUGUUUUAGUGUGGGCAUGUAGA [JMF's solution 22] (Eterna round: R96, puzzle: Exclusion NG 1)
Result: yes (1)

Query: Given AGUACUAUCACGAAAGUGAUAGUACAAUGAGCUUUUGAAACAUGAGGAUCACCCAUGUCCUCAUAAGCUCGUCUUAU [JL turnoff v2 52] (Eterna round: R96, puzzle: Sensor v2, turn-off variant 2) , state whether its apparent KD of MS2 coat protein is at least 20 nM.
Result: no (0)

Query: Textbook exercise: given the entry CAAAAUGUAUAAGGAUAUCUCGCCAAUAAAGGCAGAGAAGGUAUACCCACUUGAGGAUCACCCAAGUCAGGUGUGCCUGGUGGA [Mutated MS2 EX1.24] (Eterna round: R96, puzzle: Exclusion NG 1) , state whether its apparent KD of MS2 coat protein is greater than or equal to 20 nM.
Result: no (0)
